Target: insulin-like growth factor-1 (IGF-1) (UniProt P05019 49-118)
Sequence (P05019 49-118 limits assumed): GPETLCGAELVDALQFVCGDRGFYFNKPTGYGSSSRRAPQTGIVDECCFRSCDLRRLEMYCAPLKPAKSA
Experiment: cell-based or functional assay
Positions of bridges follow the written chain, without caps; N, C: chain ends. Non-standard residues stand in square brackets, D forms with d. No end group written: not given here. d2Nal = N[C@H](Cc1ccc2ccccc2c1)C(=O)O; dAbu = CC[C@@H](N)C(=O)O
// map % Inhibition at 100 µM, p44 onto a label; ranges low class = under 40%, middle class = from 40% up to 60%, high class = 60% and over

{"binder": "[d2Nal]DGD (designed binder, linker N-C via 3‑aminomethyl‑5‑aminobenzamide; also: four loops joined to But-Calix calix[4]arene scaffold) [GFB-118]", "group": "middle class"}
{"binder": "GDDD (designed binder, linker N-C via 3‑aminomethyl‑5‑aminobenzamide; also: loops on DPM-2 scaffold) [GFB-129]", "group": "low class"}
{"binder": "GDLD (designed binder, linker N-C via 3‑aminomethyl‑5‑aminobenzamide; also: four loops on But-Calix calix[4]arene scaffold) [GFB-109]", "group": "high class"}
{"binder": "GFB-135 (designed binder, also: 3 GDGY loops and 1 GDDD loop on But-Calix scaffold, linker to a chain's N/C-terminus via 3-aminomethyl-5-aminobenzamide) peptide 1: GDGY peptide 2: GDDD", "group": "middle class"}
{"binder": "PDGD (designed binder, linker N-C via 3‑aminomethyl‑5‑aminobenzamide; also: four loops on But-Calix scaffold) [GFB-119]", "group": "high class"}
{"binder": "ADGD (designed binder, linker N-C via 3‑aminomethyl‑5‑aminobenzamide; also: four loops on But-Calix calix[4]arene scaffold) [GFB-112]", "group": "low class"}
{"binder": "[dAbu]DGD (designed binder, linker N-C via 3‑aminomethyl‑5‑aminobenzamide; also: four loops joined to But-Calix calix[4]arene scaffold) [GFB-121]", "group": "high class"}
{"binder": "GDGY (designed binder, linker N-C via 3‑aminomethyl‑5‑aminobenzamide; also: loops on DPM-2 scaffold) [GFB-128]", "group": "low class"}

This collection of values is drawn from patent US20060084596A1.
